Molecular target: UniProt P16453
Sequence (whole entry): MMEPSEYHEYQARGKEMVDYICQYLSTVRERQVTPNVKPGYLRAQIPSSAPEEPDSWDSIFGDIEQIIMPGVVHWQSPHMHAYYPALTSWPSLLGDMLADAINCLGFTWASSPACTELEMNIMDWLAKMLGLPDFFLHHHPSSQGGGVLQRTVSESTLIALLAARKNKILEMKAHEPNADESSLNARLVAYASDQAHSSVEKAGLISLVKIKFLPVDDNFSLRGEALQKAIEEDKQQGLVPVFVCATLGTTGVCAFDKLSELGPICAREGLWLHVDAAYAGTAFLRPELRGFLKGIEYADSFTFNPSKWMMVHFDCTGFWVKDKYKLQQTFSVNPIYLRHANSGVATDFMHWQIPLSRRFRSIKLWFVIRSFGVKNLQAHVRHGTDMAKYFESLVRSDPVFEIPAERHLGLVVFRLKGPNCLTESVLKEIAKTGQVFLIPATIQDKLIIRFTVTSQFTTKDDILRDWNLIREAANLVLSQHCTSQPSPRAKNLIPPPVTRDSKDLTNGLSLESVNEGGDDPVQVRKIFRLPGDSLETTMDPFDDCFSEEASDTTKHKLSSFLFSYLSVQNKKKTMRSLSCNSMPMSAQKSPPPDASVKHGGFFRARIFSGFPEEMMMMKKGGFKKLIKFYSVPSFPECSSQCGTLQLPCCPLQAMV
Assay: Inhibition of histidine decarboxylase in rat pyloric stomach using [carboxyl-14C]-histidine as substrate at 10^-3 M by 14CO2 trapping assay relative to control
Format: tissue-based
MEASUREMENT LABEL: inhibition (%)
Numbers only, in %.

Check out these entries, answers already filled in.
>>> test_value("C[C@](N)(Cc1c[nH]cn1)C(=O)O")
40
>>> test_value("CC(C)(c1c[nH]cn1)[C@H](N)C(=O)O")
0
>>> test_value("N[C@@]1(Cc2c[nH]cn2)CCOC1=O")
19
>>> test_value("CC[C@](N)(Cc1c[nH]cn1)C(=O)O")
14
>>> test_value("NC(CCc1c[nH]cn1)C(=O)O (configuration not stated)")
0

Quick batch: inhibition for everything below.
1. CCCC[C@](N)(Cc1c[nH]cn1)C(=O)O
2. CC(C)[C@](N)(Cc1c[nH]cn1)C(=O)O

1: 0; 2: 1
